Reference for the values: patent US6589950B1

- Study System: UniProt:P43405
Observation Type: IC50 (nM)

c1nc2c(NC3CC3)nc(Nc3ccc(N4CCOCC4)cc3)nc2[nH]1; 9

[A] CCN(C(C)=O)c1ccc(Nc2nc(NC(C)C)c3nc[nH]c3n2)cc1
[B] CC(=O)N1CCN(c2ccc(Nc3nc(NC4CC4)c4nc[nH]c4n3)cc2)CC1
Task item: Given the listed records, identify the one among A and B with higher IC50. Give the label of your selection.
Reply: A

###

Structures can show the parent of a compound that is named as a salt.
Observation Type: melting point

Solved entries:
CC(=O)N(C)c1ccc(Nc2nc(NC(C)(C)C)c3nc[nH]c3n2)cc1; 273 to 274 °C
c1nc2c(NC3CC3)nc(Nc3ccc(N4CCOCC4)cc3)nc2[nH]1; 201.9 to 203.7 °C
CC(=O)N(C)c1ccc(Nc2nc(NC3CCC3)c3nc[nH]c3n2)cc1 (as salt: HCl); 314 to 318 °C

Task item: What does the record list as melting point for c1ccc(Nc2nc(NC3CCC3)c3[nH]cnc3n2)cc1 ?
Reply: 312 to 314 °C
